Give measured IC50 for each item. Keep answers brief.
System: NUGC-3 (P53 Y220C)
METHOD NOTES: Cell viability assay (CellTiter-Glo)
Type: cell-based
COND: Homo sapiens, 144 h, NUGC-3 cells, 6 days, 37 °C
Numbers only, in µM.

The following molecules have reported results that may help.
[
  {
    "STRUCTURE SMILES STRING": "CN1CC[C@@H](Nc2cccc3c(CC(F)(F)F)c(C#CCNc4ccc(P(C)(C)=O)cc4-c4cc[nH]n4)sc23)[C@@H](F)C1",
    "IC50 [µM]": 1.4
  },
  {
    "STRUCTURE SMILES STRING": "COc1cc(S(C)(=O)=O)ccc1NCC#Cc1sc2c(N[C@@H]3CCN(C)C[C@@H]3F)cccc2c1CC(F)(F)F",
    "IC50 [µM]": 0.59
  },
  {
    "STRUCTURE SMILES STRING": "COc1cc(P(C)(C)=O)ccc1NCC#Cc1sc2c(N[C@@H]3CN4CCC3CC4)cccc2c1CC(F)(F)F",
    "IC50 [µM]": 1.6
  }
]

Okay, now this molecule:
Short answer for [2H]C([2H])([2H])Oc1nc(P(C)(C)=O)ccc1NCC#Cc1sc2c(N[C@@H]3CCN(C)C[C@@H]3F)cccc2c1CC(F)(F)F : IC50 was 0.43

* * *

Assignment: determine reported pIC50 for the given molecules.
Tested on: NUGC-3 (P53 Y220C)
METHOD NOTES: Cell viability assay (CellTiter-Glo)
Type: cell-based
COND: Homo sapiens, 144 h, NUGC-3 cells, 6 days, 37 °C
Answers are plain numbers, as −log10 of the molar value.

// for each molecule below, give its pIC50
1. COc1c(NCC#Cc2sc3c(N[C@@H]4CCN(C)C[C@@H]4F)cccc3c2CC(F)(F)F)ccc(P(C)(C)=O)c1OC
2. COc1cc([S@@](C)(=N)=O)ccc1NCC#Cc1sc2c(N[C@H]3CCN(C)C[C@@H]3F)cccc2c1[C@@H](O)C(F)(F)F
3. COc1cc(P(C)(C)=O)ccc1NCC#Cc1sc2c(N[C@@H]3CCN(C)C[C@@H]3F)cccc2c1[C@@H](O)C(F)(F)F

6.10
6.40
5.84

# batch size: 3; output pIC50 per entry
1. CN1CC[C@@H](Nc2cccc3c(CC(F)(F)F)c(C#CCNc4ccc(P(C)(C)=O)c5c4C(=O)NC5)sc23)[C@@H](F)C1
2. COc1nc([S@](C)(=N)=O)ccc1NCC#Cc1sc2c(N[C@@H]3CCN(C)C[C@@H]3F)cccc2c1CC(F)(F)F
3. COc1cc([S@@](C)(=N)=O)ccc1NCC#Cc1sc2c(N[C@@H]3CCN(C)C[C@H]3F)cccc2c1[C@@H](O)C(F)(F)F

1. 5.89
2. 5.87
3. 5.69

* * *

Test system: NUGC-3 (P53 Y220C)
METHOD NOTES: Cell viability assay (CellTiter-Glo)
Format: cell-based
COND: Homo sapiens, 144 h, NUGC-3 cells, 6 days, 37 °C
Protocol: Cells were collected and counted. A desired number of cells was seeded into 96-well microplate and cultured in 37 °C cell incubator overnight. Compounds dissolved in cell culture medium were added into cell plate and cultured for 6 days. […] The cells were balanced at room temperature for 10 minutes and Luminescence signal was read using Envision. […] Then the data were analyzed either by fitting a 4-parameter logistic model or by Excel to calculate IC50 values. […]
PROPERTY MEASURED: IC50 (nM)
One number for each entry, in nM.

Recorded results for 7 compounds are shown here.
[
  {
    "COMPOUND": "COc1c(NCC#Cc2sc3c(N[C@@H]4CCN(C)C[C@@H]4F)cccc3c2CC(F)(F)F)ccc(P(C)(C)=O)c1C(F)(F)F",
    "READOUT NUMBER": 1890
  },
  {
    "COMPOUND": "COc1cc(P(C)(C)=O)ccc1NCC#Cc1sc2c(N[C@H]3CCN(C)C[C@H]3F)cccc2c1[C@@H](O)C(F)(F)F",
    "READOUT NUMBER": 380
  },
  {
    "COMPOUND": "COc1cc(S(=N)(=O)C2CCOCC2)ccc1NCC#Cc1sc2c(NC3CCN(C)CC3F)cccc2c1CC(F)(F)F (centres unmarked)",
    "READOUT NUMBER": 900
  },
  {
    "COMPOUND": "COc1cc(P(C)(C)=O)ccc1NCC#Cc1sc2c(N[C@@H]3CCN(C)C[C@@H]3F)cccc2c1[C@H](O)C(F)(F)F",
    "READOUT NUMBER": 870
  },
  {
    "COMPOUND": "CCOc1c(P(C)(C)=O)ccc(NCC#Cc2sc3c(N[C@@H]4CCN(C)C[C@@H]4F)cccc3c2CC(F)(F)F)c1OC",
    "READOUT NUMBER": 590
  },
  {
    "COMPOUND": "COc1cc(P(C)(C)=O)ccc1NCC#Cc1sc2c(NC3CN(C)CC3F)cccc2c1CC(F)(F)F (centres unmarked)",
    "READOUT NUMBER": 1390
  },
  {
    "COMPOUND": "COc1nc([S@@](C)(=N)=O)ccc1NCC#Cc1sc2c(N[C@@H]3CCN(C)C[C@@H]3F)cccc2c1CC(F)(F)F",
    "READOUT NUMBER": 1330
  }
]

// next item, IC50 requested
IC50 in this record for COc1cc([S@](=N)(=O)C(C)C)ccc1NCC#Cc1sc2c(N[C@@H]3CCN(C)C[C@@H]3F)cccc2c1CC(F)(F)F : 1840

Cited source for all entries: patent US20260374794A1
